test system: morningglory; assay: Test C preemergence; type: in vivo, Ipomoea coccinea; conditions: preemergence, 31 g ai/ha; visual rating, scale 0 to 100 (0 no effect, 100 complete control), 13 to 15 days
assay-endpoint: Morningglory plant response rating
Just the number, please.

Tell me Morningglory plant response rating of CCNC(=O)c1cc(CCCl)n(Cc2ccnc(C(F)(F)F)c2)n1 when tested on morningglory.
85

---

tested on: waterhemp; test: Test C preemergence; format: in vivo, Amaranthus rudis; conditions: preemergence, 31 g ai/ha; visual rating, scale 0 to 100 (0 no effect, 100 complete control), 13 to 15 days
Excerpt: […]
assay-endpoint: Waterhemp plant response rating
Just the number, please.

Before answering, review these 5 worked examples.
CCc1cc(C(=O)NOC(C)C)nn1Cc1ccnc(C(F)(F)F)c1 [Compound 101]	95
CCCNC(=O)c1cc(CCCl)n(Cc2ccnc(C(F)(F)F)c2)n1 [Compound 145]	98
CCOc1cc(C(=O)NC2CC2)nn1Cc1ccnc(C(F)(F)F)c1 [Compound 189]	100
CCOc1cc(C(=O)NC2CC2)nn1Cc1ccnc(OC(F)F)c1 [Compound 133]	85
CCOc1cc(C(=O)NC(C)C)nn1Cc1ccnc(C(F)(F)F)c1 [Compound 188]	100

Give the measured Waterhemp plant response rating for CCCc1cc(C(=O)NOCC)nn1Cc1ccnc(C(F)(F)F)c1 [Compound 185]
100

Give the measured Waterhemp plant response rating for CCc1cc(C(=O)NCC(F)(F)F)nn1Cc1ccnc(C(F)(F)F)c1 [Compound 78]
100

Give the measured Waterhemp plant response rating for CCOc1cc(C(=O)NCC(F)(F)F)nn1Cc1ccnc(C(F)(F)F)c1 [Compound 104]
100

Data origin: patent US20150105252A1
